Test system: SNB-75 CNS
Test: NCI tumour cell line growth inhibition, 48 h
Here the recorded TGI is given for each entry.
measured.parameter: TGI (µM)

compound=O=C1NC(=NCc2ccc(F)cc2)N/C1=C\c1ccccc1Cl measured_parameter=TGI units=µM op== experimental_result=26.6
compound="Nc1nc(SCCNC(=O)CCc2ccc(O)c(I)c2)nc2c1ncn2C1OC(CO)C(O)C1O (configuration not stated)" measured_parameter=TGI units=µM op=> experimental_result=100
compound=COC(=O)[C@@H]1C[C@]2(Br)c3ccccc3N(S(=O)(=O)c3ccccc3)[C@@H]2N1C(=O)OC measured_parameter=TGI units=µM op=> experimental_result=100
compound="CCN1C(=O)N(CC)C2C1NN=c1s/c(=C\\c3ccc(C(F)(F)F)cc3)c(=O)n12 (configuration not stated)" measured_parameter=TGI units=µM op== experimental_result=2.74
compound=CCc1[nH]nc(C(N)=O)c1N=NN(C)C measured_parameter=TGI units=µM op=> experimental_result=100
compound=CCCCc1n(Cc2ccc3ccccc3n2)cc[n+]1Cc1ccc2ccccc2n1 measured_parameter=TGI units=µM op== experimental_result=6.01
compound=CC1=C(SCCO)C(=O)c2ccccc2C1=O measured_parameter=TGI units=µM op== experimental_result=30.1
compound=COc1ccccc1/C=N/Nc1nnc2c3ccccc3c3ncccc3c2n1 measured_parameter=TGI units=µM op== experimental_result=49.3
compound=CN(C)/C=C/c1c2c(nc3ccccc13)C(=O)c1cccnc1C2=O measured_parameter=TGI units=µM op== experimental_result=4.66
compound=O=c1oc2ccc(Cl)cc2c(=O)n1-c1ccc(F)cc1F measured_parameter=TGI units=µM op== experimental_result=4.2
compound=O=C1CCCCN1 measured_parameter=TGI units=µM op=> experimental_result=1120
compound="Nc1ccn(CCOC(c2ccccc2)P(=O)(O)O)c(=O)n1 (configuration not stated)" measured_parameter=TGI units=µM op=> experimental_result=100
compound="COC(=O)/C(=N\\NC(N)=O)C(C#N)c1ccccc1 (configuration not stated)" measured_parameter=TGI units=µM op=> experimental_result=100
compound=O=C(Nc1ccccc1Cl)c1ccc(NC2=C(Cl)C(=O)N(C3CCCCC3)C2=O)cc1 measured_parameter=TGI units=µM op== experimental_result=34.4
compound=O=c1[nH]nc(CNc2ccc(Cl)cc2Cl)c2ccccc12 measured_parameter=TGI units=µM op== experimental_result=60.8
compound=O=S1(=O)c2cc(S(=O)(=O)n3ccnc3)ccc2NC2=NCCCN21 measured_parameter=TGI units=µM op== experimental_result=88.1
compound="CC12C3CC4C5CC(C(C53)[C@@H]1NCc1ccccc1)C42 (some centres not stated)" measured_parameter=TGI units=µM op=> experimental_result=100
compound="N#CC(C(=O)CCC(=O)Nc1cccc(C(F)(F)F)c1)c1ccccc1 (configuration not stated)" measured_parameter=TGI units=µM op=> experimental_result=100
compound="CCOC(=O)C(NC(=O)c1ccccc1)(c1ccc(S(=O)(=O)Nc2onc(C)c2C)cc1)C(F)(F)F (configuration not stated)" measured_parameter=TGI units=µM op=> experimental_result=100
compound=CC1=C2[C@@H](CC1)[C@]1(C)O[C@@](C(C)C)(C[C@H]1OC(=O)CO)[C@H]2OC(=O)CCCc1ccccc1 measured_parameter=TGI units=µM op== experimental_result=18.5
compound=CN[C@@H](Cc1cccc2ccccc12)C(=O)N[C@@H](CC(C)C)B(O)O measured_parameter=TGI units=µM op== experimental_result=0.0617
compound=O=C(c1ccc2ccccc2c1)c1c(C(F)(F)F)n([O-])c2cc(C(F)(F)F)ccc2[n+]1=O measured_parameter=TGI units=µM op== experimental_result=3.13
compound=N#Cc1ccc([N+](=O)[O-])cc1NC(N)=S measured_parameter=TGI units=µM op=> experimental_result=100
compound=O=C(O)CN1C(=O)CN=C(c2ccccn2)c2cc(Cl)ccc21 measured_parameter=TGI units=µM op=> experimental_result=100
compound=COc1cc2c(/C=C3/C(=O)Nc4ccc(O)cc43)c(Cl)n(Cc3cc(OC)c(OC)c(OC)c3)c2cc1C measured_parameter=TGI units=µM op=> experimental_result=59.8
compound="CC[C@]1(Cc2ccc(OC)c(OC)c2)C2CC(C(=O)OC)ON2O[C@H](OCc2ccccc2)[C@@H]1OC(C)=O (some centres not stated)" measured_parameter=TGI units=µM op=> experimental_result=100
compound=COc1ccc(CNCCCN2C(=O)c3ccc4c5c(ccc(c35)C2=O)C(=O)N(CCCNCc2ccc(OC)c(OC)c2OC)C4=O)c(OC)c1OC measured_parameter=TGI units=µM op== experimental_result=0.442
compound=CCCCCCCC(=O)OC[C@H](C[As](=O)(O)O)OC(=O)CCCCCCC measured_parameter=TGI units=µM op== experimental_result=32.3
compound="C/C=C\\C(CC(=O)NCCC1CN(C(=O)OCc2ccccc2)c2ccccc21)CC(=O)OC (configuration not stated)" measured_parameter=TGI units=µM op=> experimental_result=100
compound=COc1ccc([Se][Se]c2ccc(OC)cc2OC)c(OC)c1 measured_parameter=TGI units=µM op== experimental_result=3.11
compound=COc1ccc2c(c1)C(=O)c1c-2c(N2CCN(C(=O)CCNCCNCCN)CC2)nc2ccccc12 measured_parameter=TGI units=µM op== experimental_result=51.6
compound=CC(=O)[CH-]C(C)=O.CC(=O)[CH-]C(C)=O.[Cl-].[O]=[V] measured_parameter=TGI units=µM op== experimental_result=25.2
compound="Cn1c2ccccc2c2c3c(c4c5ccccc5n(C5OC(CO)C(O)C(O)C5O)c4c21)C(=O)OC3=O (configuration not stated)" measured_parameter=TGI units=µM op=> experimental_result=100
compound=Brc1ccc(C=NC23CC4CC(CC(C4)C2)C3)cc1 measured_parameter=TGI units=µM op=> experimental_result=100
compound=Cc1cc2c(=O)c(C)n[nH]c2c(C#N)c1C measured_parameter=TGI units=µM op=> experimental_result=100
compound=CCOP(=O)(Nc1ccc(-c2ccc(N)cc2)cc1)OCC measured_parameter=TGI units=µM op=> experimental_result=100
compound=Cc1ccc(-c2nc(/C=N/Nc3cc(C)nc4ccc(Br)cc34)c(C)o2)cc1 measured_parameter=TGI units=µM op== experimental_result=3.39
compound=CCN(CC)CCn1c(=O)c2cc(OC)c(OC)cc2c2ccc3cc4c(cc3c21)OCO4 measured_parameter=TGI units=µM op== experimental_result=15.4
compound="CN1c2c(nc(N)[nH]c2=O)NCC1CCNc1ccc(C(=O)NC(CCC(=O)O)C(=O)O)cc1 (configuration not stated)" measured_parameter=TGI units=µM op== experimental_result=2660
compound=C1=CCC[C@@H]2CN3CCCC/C=C\CCCC[C@H]4C[C@H](CN(CCCCCCCC1)C4)[C@H]2CC3 measured_parameter=TGI units=µM op== experimental_result=16.5
compound="CC1(O)C2(c3ccccc3)CCC[N+]1(C)CC2 (configuration not stated)" measured_parameter=TGI units=µM op=> experimental_result=100
compound=CC(=O)NCc1c(C(N)=O)ncn1Cc1ccccc1 measured_parameter=TGI units=µM op=> experimental_result=100

====

Tested on: SR leukemia
Test: NCI tumour cell line growth inhibition, 48 h
measured.parameter: TGI (µM)

compound=COc1ccc(-c2cc(-c3ccc(OC)cc3)nc(NCCCNc3ccnc4cc(Cl)ccc34)n2)cc1 target_system="SR leukemia" op== experimental_result=5.86
compound="Nc1ccn(CCOC(c2ccccc2)P(=O)(O)O)c(=O)n1 (centres undefined)" target_system="SR leukemia" op=> experimental_result=100
compound="CC1OC(CC(=O)O)Cc2c1c(O)c1c(O)cc(-c3cc(=O)c4c(=O)c5c(c(=O)c=4c3=O)CC(CC(=O)O)OC5C)c(O)c1c2O (centres undefined)" target_system="SR leukemia" op== experimental_result=53.9
compound=Cc1c[nH]c(=O)n(Cc2nnc(CCC(=O)c3nc4ccccc4[nH]3)o2)c1=O target_system="SR leukemia" op=> experimental_result=100
compound="COc1ccc(C2CC(c3ccc(OC)cc3O)=NN2c2ccc(S(N)(=O)=O)cc2)cc1 (centres undefined)" target_system="SR leukemia" op== experimental_result=9.61
compound=C=CCOc1ccc(N)c([N+](=O)[O-])c1 target_system="SR leukemia" op=> experimental_result=100
compound=COc1ccccc1NC(=O)CC(=O)n1nc(C)c(N=Nc2ccccc2Cl)c1C target_system="SR leukemia" op== experimental_result=97.9
compound=O=C(Nc1ccccc1Cl)c1ccc(NC2=C(Cl)C(=O)N(C3CCCCC3)C2=O)cc1 target_system="SR leukemia" op== experimental_result=7.87
compound=N#Cc1sc2c(c1OC(=O)c1ccc(Cl)cc1Cl)c(=O)n(-c1ccccc1)c(=S)n2-c1ccccc1 target_system="SR leukemia" op=> experimental_result=100
compound=CC(=O)Nc1ccc(OC(C)=O)cc1 target_system="SR leukemia" op== experimental_result=1.5
compound=CCCCC(=O)c1c(O)ccc2c(C)cc(=O)oc12 target_system="SR leukemia" op=> experimental_result=100
compound=COc1ccc2nc3cc([N+](=O)[O-])ccc3c(Nc3ccc(S(=O)(=O)Nc4ncccn4)cc3)c2c1 target_system="SR leukemia" op=> experimental_result=30.5
compound=COc1c(C)c(OC)c(C(=O)CC(C)C)c(OC)c1C target_system="SR leukemia" op=> experimental_result=100
compound=O=[N+]([O-])c1cc(I)cc(/C=N/NS(=O)(=O)c2ccc(Cl)cc2)c1O target_system="SR leukemia" op== experimental_result=46.2
compound=Cc1nc(-n2nc(-c3ccccc3)cc2-c2ccccc2)sc1C(=O)/C=C/c1ccc([N+](=O)[O-])cc1 target_system="SR leukemia" op== experimental_result=24.2
compound=C1=CC=C2NCCc3cccc(c3)CCNC3=CC=CC=CC3=NCCCCCCN=C2C=C1 target_system="SR leukemia" op== experimental_result=82.4
compound=COc1cc2c(c(OC)c1OC)-c1c(c3ccc([N+](=O)[O-])cc3c(=O)n1CCCBr)C2=O target_system="SR leukemia" op=> experimental_result=100
compound=CCCCCCCC(=O)OC[C@H](C[As](=O)(O)O)OC(=O)CCCCCCC target_system="SR leukemia" op== experimental_result=22.8
compound=C=CCCCN1CCCCC1=S target_system="SR leukemia" op=> experimental_result=100
